The following molecules are shown together with reported pIC50 values.
Tested on: HCT-116
Assay: Cytotoxicity against drug-resistant human HCT116 cells overexpressing BCRP after 48 hrs by MTT assay
Format: functional, cell-based
Details: HCT-116, 48 h
pIC50: −log10 of the molar value.
Measured endpoint: pIC50

COc1ccc2oc(=O)cc(-c3ccc(OC)c(O)c3)c2c1 :: 6.85
COc1ccc(-c2cc(=O)oc3cccc(OC)c23)cc1O :: 6.70
COc1ccc(-c2cc(=O)oc3ccccc23)cc1O :: 6.92

====

Species: Ovis aries
Experiment: Binding affinity at lamb tubulin by spectrofluorimetric analysis
Measured Ka by item
Measured endpoint: Ka (×10⁵ /M)

COc1ccc2c(-c3ccc(OC)c(O)c3)cc(=O)oc2c1 :: 4.55
COc1ccc2oc(=O)cc(-c3ccc(OC)c(O)c3)c2c1 :: 7.4
COc1ccc(-c2cc(=O)oc3cc(OC)c(OC)cc23)cc1O :: 2.47
COc1ccc(-c2cc(=O)oc3ccc(OC)c(OC)c23)cc1O :: 1.34
COc1cc(OC)c2c(-c3ccc(OC)c(O)c3)cc(=O)oc2c1 :: 3.75

====

Test system: K562
Experiment: Cytotoxicity against drug-sensitive human K562 cells after 48 hrs by MTT assay
Format: functional, cell-based
Settings: K562, 48 h
Measured endpoint: IC50 (nM)

COc1ccc2oc(=O)cc(-c3ccc(OC)c(O)c3)c2c1 :: 88
COc1ccc(-c2cc(=O)oc3ccccc23)cc1O :: 96
COc1ccc(-c2cc(=O)oc3cccc(OC)c23)cc1O :: 86

====

Species on record: Ovis aries
Experiment: Binding affinity at lamb tubulin by spectrofluorimetric analysis
Reported Ka values follow for various compounds
Measured endpoint: Ka (×10⁶ /M)

COc1ccc(/C=C\c2cc(OC)c(OC)c(OC)c2)cc1O :: 3.35
COc1ccc(-c2cc(=O)oc3cccc(OC)c23)cc1O :: 1.64
COc1ccc(-c2cc(=O)oc3ccccc23)cc1O :: 1.41
